- Tested on: 993429-296-R-J1-PDC complex spheroid growth, percent test/control
- assayInfo: Anticancer human tumor 993429-296-R-J1-PDC patient-derived uterine sarcoma cell line growth inhibition [Asc]
- measurementSetup: curve of first compound; second compound 0.1 µM
reportedMetric: IC50 (nM)
Field format: number, assumed nM, no unit text.

Problem: Query IC50 for C=C(F)C(=O)N1CCN(c2nc(OCC3CCCN3C)nc3c2CCN(c2cccc4cccc(Cl)c24)C3)CC1CC#N (configuration not stated) + CNC(C)C(=O)NC1CN(S(=O)(=O)c2cccc(S(=O)(=O)N3CCC4CCC(C(=O)NC(c5ccccc5)c5ccccc5)N4C(=O)C(NC(=O)C(C)NC)C3)c2)CCC2CCC(C(=O)NC(c3ccccc3)c3ccccc3)N2C1=O
Solution: 617

Shifting focus to the compound that follows.
Problem: Query IC50 for Cc1nc(N2CCC3(CC2)COC(C)C3N)c(CO)nc1Sc1ccnc(N)c1Cl (configuration not stated) + CNC(C)C(=O)NC1CN(S(=O)(=O)c2cccc(S(=O)(=O)N3CCC4CCC(C(=O)NC(c5ccccc5)c5ccccc5)N4C(=O)C(NC(=O)C(C)NC)C3)c2)CCC2CCC(C(=O)NC(c3ccccc3)c3ccccc3)N2C1=O
Solution: 56.8

====

- Tested on: 993429-296-R-J1-PDC complex spheroid growth, percent test/control
- assayInfo: Anticancer human tumor 993429-296-R-J1-PDC cell line growth inhibition [Asc];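 further: spheroids exposed to compounds for seven days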
- measurementSetup: curve of first compound; second compound 0.1 µM
reportedMetric: pIC50
Just the number, please; pIC50 means minus log10 of the concentration in mol/L.

Past entries and their recorded results:
Problem: Query pIC50 for Cn1ncnc1[C@H]1c2n[nH]c(=O)c3cc(F)cc(c23)N[C@@H]1c1ccc(F)cc1 + Cc1c(S(C)(=O)=O)c(-c2cc(F)cc(N3CCN(c4ccc(NS(=O)(=O)c5ccc(NC(CCN6CCC(C(=O)OCCCP(=O)(O)O)CC6)CSc6ccccc6)c(S(=O)(=O)C(F)(F)F)c5)cc4)CC3)c2)c(-c2ccc(Cl)cc2)n1C(C)C
Solution: 8.01

Problem: Query pIC50 for O=C(c1ccc(F)c(F)c1Nc1ccc(I)cc1F)N1CC(O)([C@@H]2CCCCN2)C1 + CNC(C)C(=O)NC1CN(S(=O)(=O)c2cccc(S(=O)(=O)N3CCC4CCC(C(=O)NC(c5ccccc5)c5ccccc5)N4C(=O)C(NC(=O)C(C)NC)C3)c2)CCC2CCC(C(=O)NC(c3ccccc3)c3ccccc3)N2C1=O
Solution: 7.57

Problem: Query pIC50 for Cc1nc(N2CCC3(CC2)COC(C)C3N)c(CO)nc1Sc1ccnc(N)c1Cl (configuration not stated) + Cc1c(S(C)(=O)=O)c(-c2cc(F)cc(N3CCN(c4ccc(NS(=O)(=O)c5ccc(NC(CCN6CCC(C(=O)OCCCP(=O)(O)O)CC6)CSc6ccccc6)c(S(=O)(=O)C(F)(F)F)c5)cc4)CC3)c2)c(-c2ccc(Cl)cc2)n1C(C)C
Solution: 7.10

***
Problem: Query pIC50 for CNC(C)C(=O)NC1CN(S(=O)(=O)c2cccc(S(=O)(=O)N3CCC4CCC(C(=O)NC(c5ccccc5)c5ccccc5)N4C(=O)C(NC(=O)C(C)NC)C3)c2)CCC2CCC(C(=O)NC(c3ccccc3)c3ccccc3)N2C1=O (configuration not stated) + Cc1c(S(C)(=O)=O)c(-c2cc(F)cc(N3CCN(c4ccc(NS(=O)(=O)c5ccc(NC(CCN6CCC(C(=O)OCCCP(=O)(O)O)CC6)CSc6ccccc6)c(S(=O)(=O)C(F)(F)F)c5)cc4)CC3)c2)c(-c2ccc(Cl)cc2)n1C(C)C
Solution: 6.27

Problem: Query pIC50 for NC(=O)C(=Cn1cnc(-c2cc(C(F)(F)F)cc(C(F)(F)F)c2)n1)c1cncnc1 + Cc1c(S(C)(=O)=O)c(-c2cc(F)cc(N3CCN(c4ccc(NS(=O)(=O)c5ccc(NC(CCN6CCC(C(=O)OCCCP(=O)(O)O)CC6)CSc6ccccc6)c(S(=O)(=O)C(F)(F)F)c5)cc4)CC3)c2)c(-c2ccc(Cl)cc2)n1C(C)C
Solution: 8.10

Problem: Query pIC50 for O=C(c1ccc(F)c(F)c1Nc1ccc(I)cc1F)N1CC(O)([C@@H]2CCCCN2)C1 + Cc1c(S(C)(=O)=O)c(-c2cc(F)cc(N3CCN(c4ccc(NS(=O)(=O)c5ccc(NC(CCN6CCC(C(=O)OCCCP(=O)(O)O)CC6)CSc6ccccc6)c(S(=O)(=O)C(F)(F)F)c5)cc4)CC3)c2)c(-c2ccc(Cl)cc2)n1C(C)C
Solution: 8.12
